- Tested on: P. falciparum 3D7 strain stage III–V gametocytes
- EXPERIMENT_SUMMARY: alamarBlue gametocyte viability assay, 1,536-well plate format
- Assay type: cell-based, Plasmodium falciparum
- RECORDED_CONDITIONS: Plasmodium falciparum, 3D7, 72 h, read-out: IC50 (gametocyte assay)
QUANTITY: pIC50
A value of pIC50 is the negative decimal logarithm of a concentration given in moles per litre.

Example entries and their recorded answers appear below.
CNc1ccc2oc(C[C@H]3O[C@@]4(CC[C@H]3C)O[C@H]([C@H](C)C(=O)c3ccc[nH]3)[C@H](C)C[C@H]4C)nc2c1C(=O)O    5.71
c1cnc2c(c1)ccc1cccnc12    5.66
Cc1cc(NC2CCCCC2)nc(-n2nc(C)cc2C)n1    5.93

// moving on: another record for pIC50
Ask: Please report pIC50 with P. falciparum 3D7 strain stage III–V gametocytes for item `CCN(CC)C(=S)SSC(=S)N(CC)CC` .
Result: 6.60

Where do these numbers come from? They come from paper PMC3640759.
